// data source = ChEMBL document CHEMBL1142018

Listing of entries alongside the reported pEC50.
# test.system: 5-hydroxytryptamine receptor 2B (Homo sapiens)
# test.method.notes: Effective concentration towards 5-hydroxytryptamine 2B receptors transfected in HEK293 cells was determined by measuring [3H]phosphoinositol release
# Assay type: functional, cell-based
# measurement.conditions: read-out: EC50
// pEC50: -log10(molar conc.)

Examples with answers:
compound | test.system | readout.name | value
COc1cc2c(cc1I)C(C)CNCC2 (stereo not drawn) | 5-hydroxytryptamine receptor 2B (Homo sapiens) | pEC50 | 7.19
CC1CNCCc2cc(Cl)ccc21 (stereo not drawn) | 5-hydroxytryptamine receptor 2B (Homo sapiens) | pEC50 | 6.28
CCOc1cc2c(cc1Br)C(C)CNCC2 (stereo not drawn) | 5-hydroxytryptamine receptor 2B (Homo sapiens) | pEC50 | 6.74
CC(C)Oc1cc2c(cc1Br)C(C)CNCC2 (stereo not drawn) | 5-hydroxytryptamine receptor 2B (Homo sapiens) | pEC50 | 6.64

// switching to the query compound
Would you mind telling me what pEC50 value was observed for CC1CNCCc2c(Cl)cc(Cl)cc21 (stereo not drawn) ? 6.08

* * *

Listing of entries alongside the reported log10(EC50).
# test.system: 5-hydroxytryptamine receptor 2C (Homo sapiens, UniProt P28335)
# Sequence (P28335 whole entry): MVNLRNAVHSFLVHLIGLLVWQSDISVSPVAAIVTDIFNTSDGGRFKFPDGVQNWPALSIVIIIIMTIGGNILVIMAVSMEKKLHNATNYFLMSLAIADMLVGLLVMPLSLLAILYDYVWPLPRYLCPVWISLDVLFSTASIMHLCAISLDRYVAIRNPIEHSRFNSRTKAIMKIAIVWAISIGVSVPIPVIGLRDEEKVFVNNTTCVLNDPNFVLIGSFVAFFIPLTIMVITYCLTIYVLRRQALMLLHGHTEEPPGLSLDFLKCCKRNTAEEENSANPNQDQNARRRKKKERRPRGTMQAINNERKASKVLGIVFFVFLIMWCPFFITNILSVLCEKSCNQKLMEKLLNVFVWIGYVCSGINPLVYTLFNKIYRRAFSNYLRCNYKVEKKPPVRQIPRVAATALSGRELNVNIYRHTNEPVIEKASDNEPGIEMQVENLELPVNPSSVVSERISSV
# test.method.notes: Effective concentration towards 5-hydroxytryptamine 2C receptors transfected in HEK293 cells was determined by measuring [3H]phosphoinositol release
The common logarithm of EC50 in nM is what is listed.

Examples with answers:
compound | log10(EC50)
C[C@@H]1CNCCc2ccc(Cl)c(Cl)c21 | 0.48
CC1CNCCc2c(Cl)cccc21 (stereo not given) | 2.93
CC1CNCCc2c(Cl)cc(Cl)cc21 (stereo not given) | 1.30

Form: Entry = CC1CNCCc2ccccc21 (stereo not given) | System = 5-hydroxytryptamine receptor 2C (Homo sapiens, UniProt P28335) | log10(EC50) = ____ 2.53

Form: Entry = CC1CNCCc2ccc(Br)cc21 (stereo not given) | System = 5-hydroxytryptamine receptor 2C (Homo sapiens, UniProt P28335) | log10(EC50) = ____ 1.08

Form: Entry = Clc1ccc2c(c1)CCNCC2 | System = 5-hydroxytryptamine receptor 2C (Homo sapiens, UniProt P28335) | log10(EC50) = ____ 1.08

Form: Entry = C[C@H]1CNCCc2ccc(Cl)c(Cl)c21 | System = 5-hydroxytryptamine receptor 2C (Homo sapiens, UniProt P28335) | log10(EC50) = ____ 2.36

Form: Entry = CCOc1cc2c(cc1Br)C(C)CNCC2 (stereo not given) | System = 5-hydroxytryptamine receptor 2C (Homo sapiens, UniProt P28335) | log10(EC50) = ____ 1.45

Form: Entry = COc1cc2c(cc1Br)[C@@H](C)CNCC2 | System = 5-hydroxytryptamine receptor 2C (Homo sapiens, UniProt P28335) | log10(EC50) = ____ 0.48

Form: Entry = CC(C)Oc1cc2c(cc1Br)C(C)CNCC2 (stereo not given) | System = 5-hydroxytryptamine receptor 2C (Homo sapiens, UniProt P28335) | log10(EC50) = ____ 1.83

Form: Entry = COc1ccc2c(c1)C(C)CNCC2 (stereo not given) | System = 5-hydroxytryptamine receptor 2C (Homo sapiens, UniProt P28335) | log10(EC50) = ____ 2.62

* * *

# test.system: 5-hydroxytryptamine receptor 2B (Homo sapiens)
# test.method.notes: Effective concentration towards 5-hydroxytryptamine 2B receptors transfected in HEK293 cells was determined by measuring [3H]phosphoinositol release
# Assay type: functional, cell-based
# measurement.conditions: read-out: EC50
pEC50: −log10 of the molar value.
Listing of entries alongside the reported pEC50.

compound | test.system | pEC50
CC1CNCCc2ccc(F)cc21 (stereo not drawn) | 5-hydroxytryptamine receptor 2B (Homo sapiens) | < 5.00
CC1CNCCc2ccc(Cl)c(F)c21 (stereo not drawn) | 5-hydroxytryptamine receptor 2B (Homo sapiens) | < 5.00

// switching to the query compound
Would you mind telling me what pEC50 value was observed for CC1CNCCc2ccccc21 (stereo not drawn) ? < 5.30

* * *

Listing of entries alongside the reported EC50.
# test.system: 5-hydroxytryptamine receptor 2B (Homo sapiens, UniProt P41595)
# Sequence (P41595 whole entry): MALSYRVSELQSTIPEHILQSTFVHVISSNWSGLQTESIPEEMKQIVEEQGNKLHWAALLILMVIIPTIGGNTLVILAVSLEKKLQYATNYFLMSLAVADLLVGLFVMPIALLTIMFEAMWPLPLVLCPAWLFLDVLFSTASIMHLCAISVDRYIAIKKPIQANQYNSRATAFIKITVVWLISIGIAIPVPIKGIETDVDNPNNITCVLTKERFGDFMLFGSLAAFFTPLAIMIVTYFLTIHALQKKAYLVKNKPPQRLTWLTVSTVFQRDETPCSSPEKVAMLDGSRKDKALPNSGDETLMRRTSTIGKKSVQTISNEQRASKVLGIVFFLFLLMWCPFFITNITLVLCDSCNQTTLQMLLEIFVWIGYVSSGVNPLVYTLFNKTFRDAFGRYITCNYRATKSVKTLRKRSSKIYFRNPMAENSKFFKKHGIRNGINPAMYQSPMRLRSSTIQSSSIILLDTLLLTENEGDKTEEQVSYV
# test.method.notes: Effective concentration towards 5-hydroxytryptamine 2B receptors transfected in HEK293 cells was determined by measuring [3H]phosphoinositol release
# Format: functional, cell-based
# measurement.conditions: read-out: EC50

Examples with answers:
molecule | EC50
C[C@H]1CNCCc2ccc(Cl)c(Cl)c21 | > 10 µM
CC1CNCCc2cc(OCc3ccccc3)c(Br)cc21 (stereo not drawn) | > 10 µM

// switching to the query molecule
Would you mind telling me what EC50 value was observed for CC1CNCCc2cccc(Cl)c21 (stereo not drawn) ? > 5 µM

* * *

# test.system: 5-hydroxytryptamine receptor 2C (Homo sapiens, UniProt P28335)
# test.method.notes: Effective concentration towards 5-hydroxytryptamine 2C receptors transfected in HEK293 cells was determined by measuring [3H]phosphoinositol release
# Type: functional, cell-based
readout.name: pEC50
// pEC50: -log10(molar conc.)

compound | test.system | pEC50
COc1cc2c(cc1Br)C(C(C)C)CNCC2 (centres undefined) | 5-hydroxytryptamine receptor 2C (Homo sapiens, UniProt P28335) | 6.80

Would you mind telling me what pEC50 value was observed for COc1cc2c(cc1Cl)C(C)CNCC2 (centres undefined) ? 7.96

Would you mind telling me what pEC50 value was observed for CC1CNCCc2ccc(Cl)c(F)c21 (centres undefined) ? 7.66

Would you mind telling me what pEC50 value was observed for CC1CNCCc2cc(O)c(Br)cc21 (centres undefined) ? 8.52
